Sourced from paper PMC4788259

System: E. multilocularis metacestodes
method: PGI assay: phosphoglucose isomerase release from damaged metacestodes
Assay type: cell-based, Echinococcus multilocularis
testContext: 10 μM, 5 days, single wells, relative to DB1127 (10 μM)
Short version: PGI (% of DB1127 at 10 uM) at least -10% is 1, less is -1.

IN: // inclusive: PGI (% of DB1127 at 10 uM) at least -10%? input: CCOc1ccc(/C=C/c2nc(=O)c3ccccc3o2)cc1
OUT: -1

IN: // inclusive: PGI (% of DB1127 at 10 uM) at least -10%? input: Cc1cccc(Nc2nc(N)c3ccccc3n2)c1.Cl
OUT: 1

IN: // inclusive: PGI (% of DB1127 at 10 uM) at least -10%? input: CCn1c(SCC(=O)Nc2cc(C(F)(F)F)ccc2Cl)nc2ccccc2c1=O
OUT: -1

IN: // inclusive: PGI (% of DB1127 at 10 uM) at least -10%? input: CCOC(=O)c1c(C)n(-c2ccccc2)c2ccc(OC(=O)c3cc(OC)c(OC)c(OC)c3)cc12
OUT: 1

IN: // inclusive: PGI (% of DB1127 at 10 uM) at least -10%? input: COc1ccc2nc(C)cc(Nc3ccccc3O)c2c1
OUT: 1

IN: // inclusive: PGI (% of DB1127 at 10 uM) at least -10%? input: Cc1cc(C)c2c(c1)OCN(Cc1ccccc1Cl)C2
OUT: -1

IN: // inclusive: PGI (% of DB1127 at 10 uM) at least -10%? input: Cn1c(C(=O)c2cccc3ccccc23)nc2ccccc21
OUT: 1

IN: // inclusive: PGI (% of DB1127 at 10 uM) at least -10%? input: Cc1ccc(-c2cc3c(SCC(=O)Nc4cc(C(F)(F)F)ccc4Cl)nccn3n2)cc1
OUT: -1

IN: // inclusive: PGI (% of DB1127 at 10 uM) at least -10%? input: COc1ccc(-c2nc(NC(=O)CS(=O)(=O)c3ccc(F)cc3)sc2C)cc1
OUT: -1

###

System: E. multilocularis metacestodes
method: PGI assay: phosphoglucose isomerase release from damaged metacestodes
Format: cell-based, Echinococcus multilocularis
testContext: 10 μM, 5 days, single wells, relative to DB1127 (10 μM)
Short version: PGI (% of DB1127 at 10 uM) at least -20% is fulfilled, less is not fulfilled.

IN: // inclusive: PGI (% of DB1127 at 10 uM) at least -20%? input: COc1ccc(-c2nonc2NC(=O)c2cccc(C)c2)cc1OC
OUT: fulfilled

IN: // inclusive: PGI (% of DB1127 at 10 uM) at least -20%? input: COc1ccc(-c2c(C)nn3c(N)c(C#N)cnc23)cc1OC
OUT: not fulfilled

IN: // inclusive: PGI (% of DB1127 at 10 uM) at least -20%? input: COc1ccc(-c2cn3c(C(=O)Nc4ccccc4Cl)c(-c4ccccc4)c4c3n2CCCC4)cc1
OUT: fulfilled

IN: // inclusive: PGI (% of DB1127 at 10 uM) at least -20%? input: O=C(NC1CCCC1)c1ccc(N2CCC(NCc3cccc(C(F)(F)F)c3)CC2)cc1
OUT: fulfilled

IN: // inclusive: PGI (% of DB1127 at 10 uM) at least -20%? input: Cc1sc2ncnc(Sc3nc4ccccc4[nH]3)c2c1C
OUT: not fulfilled

IN: // inclusive: PGI (% of DB1127 at 10 uM) at least -20%? input: CC1CCN(Cc2ccc(NC(=O)c3cc4ccc5cccnc5c4[nH]3)cc2)CC1
OUT: not fulfilled

IN: // inclusive: PGI (% of DB1127 at 10 uM) at least -20%? input: C[n+]1c2ccccc2nc2ccc(NCCO)cc21
OUT: fulfilled

IN: // inclusive: PGI (% of DB1127 at 10 uM) at least -20%? input: CCCCCCc1cc(O)c2c3c(c(=O)oc2c1)CCC(C)C3 (stereo not drawn)
OUT: fulfilled

IN: // inclusive: PGI (% of DB1127 at 10 uM) at least -20%? input: COc1ccc(/C=C2/SC(=Nc3ccccc3)NC2=O)cc1
OUT: fulfilled
